Experiment: Pharmacokinetics of takinib by LC-MS in plasma and tissues
Type: in vivo, C3-tag mice
Conditions: C3-tag, mouse, tumor, ip, 75 mg/kg, C3 tagged mice, 75 mpk i.p.; read-out: half-life, tumor (converted)
quantityKind: half-life (min)

compound | quantityKind | obsValue
CCCn1/c(=N/C(=O)c2cccc(C(N)=O)c2)[nH]c2ccccc21 [takinib] | half-life | 9.94

----------
Test: Pharmacokinetics of takinib by LC-MS in plasma and tissues
Type: in vivo, C3-tag mice
Conditions: C3-tag, mouse, plasma, ip, 75 mg/kg, C3 tagged mice, 75 mpk i.p.; read-out: half-life, plasma (converted)
quantityKind: half-life (min)

sampleSmiles | unitsOfMeasure | obsValue
CCCn1/c(=N/C(=O)c2cccc(C(N)=O)c2)[nH]c2ccccc21 | min | 28.2

----------
Test: Pharmacokinetics of takinib by LC-MS in plasma and tissues
Type: in vivo, C3-tag mice
Details: C3-tag, mouse, muscle, ip, 50 mg/kg, C3 tagged mice, 50 mpk i.p.; read-out: half-life, muscle (converted)

sampleSmiles | unitsOfMeasure | half-life
CCCn1/c(=N/C(=O)c2cccc(C(N)=O)c2)[nH]c2ccccc21 | min | 8.82

----------
Assay: Pharmacokinetics of takinib by LC-MS in plasma and tissues
Assay type: in vivo, C3-tag mice
Conditions: C3-tag, mouse, tumor, ip, 50 mg/kg, C3 tagged mice, 50 mpk i.p.; read-out: half-life, tumor (converted)

sampleSmiles | half-life / min
CCCn1/c(=N/C(=O)c2cccc(C(N)=O)c2)[nH]c2ccccc21 | 22.1

----------
Assay: Pharmacokinetics of takinib by LC-MS in plasma and tissues
Assay type: in vivo, C3-tag mice
Details: C3-tag, mouse, heart, ip, 50 mg/kg, C3 tagged mice, 50 mpk i.p.; read-out: half-life, heart (converted)
quantityKind: half-life (min)

sampleSmiles | quantityKind | obsValue
CCCn1/c(=N/C(=O)c2cccc(C(N)=O)c2)[nH]c2ccccc21 | half-life | 16

----------
Experiment: Pharmacokinetics of takinib by LC-MS in plasma and tissues
Type: in vivo, C3-tag mice
Settings: C3-tag, mouse, plasma, ip, 75 mg/kg, C3 tagged mice, 50 or 75 mg/kg i.p.; read-out: plasma (serum) clearance t½

molecule | half-life
CCCn1/c(=N/C(=O)c2cccc(C(N)=O)c2)[nH]c2ccccc21 [takinib] | 21 min

----------
Test: Pharmacokinetics of takinib by LC-MS in plasma and tissues
Format: in vivo, C3-tag mice
Conditions: C3-tag, mouse, spleen, ip, 50 mg/kg, C3 tagged mice, 50 mpk i.p.; read-out: half-life, spleen (converted)

sampleSmiles | half-life / h
CCCn1/c(=N/C(=O)c2cccc(C(N)=O)c2)[nH]c2ccccc21 | 4.65
